# Test system: SNB-75 CNS
# assayNotes: NCI-60 one-dose screen, 48 h
# conditionParameters: 10 µM unless noted
The panel holds about 83,000 compounds, 20% with a hit somewhere; the sample as a whole holds those more often. Active and inactive are the calls of the source. Rule for the calls: active = growth percent below 10; inactive = the rest.
The categories you may choose from are active, inactive

Study these solved cases before continuing.
compound	category
Oc1ccccc1/C=N/N=C\c1ccccc1Cl	inactive
CCn1cnc(C[C@H](NC(=O)[C@@H](NC(=O)Nc2cc(C(F)(F)F)cc(C(F)(F)F)c2)C(C)C)C(=O)OC)c1	active
COc1ccc(C2CC(=O)c3c(O)cc(OC4OC(COC5OC(C)C(O)C(O)C5O)C(O)C(O)C4O)cc3O2)cc1O (stereo not given)	inactive
COC(=O)[C@H](Cc1cn(C)cn1)NC(=O)[C@@H](NC(=O)Nc1cc(C(F)(F)F)cc(C(F)(F)F)c1)C(C)(C)C	active
COc1cc(OC)c(NC(=O)n2ncc3cc(Nc4ncnc5ccccc45)ccc32)cc1Cl	inactive
C/C(=C\c1ccc2ccccc2c1)[N+](=O)[O-]	inactive
COc1ccc(C(=O)NCCNc2nccc(-c3c(-c4ccc(F)cc4)nc4sccn34)n2)cc1	inactive
O=C(OCC1CC2(Cl)C(Cl)=C(Cl)C1(Cl)C2(Cl)Cl)C1C(C(=O)OCC2CC3(Cl)C(Cl)=C(Cl)C2(Cl)C3(Cl)Cl)C2(Cl)C(Cl)=C(Cl)C1(Cl)C2(Cl)Cl (stereo not given)	inactive

Look up the recorded call for "O=C(Nc1ccc(-n2cc(-c3ccncc3)c(-c3ccc(Cl)c(O)c3)n2)cc1)Nc1cc(C(F)(F)F)cc(C(F)(F)F)c1" in this test.
active

What is the recorded call for this compound in the test? "CCCNC(=O)Oc1ccc(/C(=C(/C)Cc2ccc(OC)cc2)c2ccc(OCCN3CCCC3)cc2)cc1"
inactive

Name the outcome recorded for "O=C(Oc1ccccc1)c1ccccc1Cl" in the assay.
inactive

Please state the recorded outcome for this compound: "COc1ccc(-n2nnnc2-c2cn[nH]c2C(F)(F)F)cc1"
inactive

Kindly provide the recorded test outcome for the following compound: "CC(C)OC(=O)[C@H](C)N[P@@](=O)(OC[C@@]1(C)O[C@@H](n2cc(F)c(N)nc2=O)C[C@@H]1O[P@](=O)(N[C@@H](C)C(=O)OC(C)C)Oc1ccccc1)Oc1ccccc1"
inactive
